Taken from ChEMBL document CHEMBL4346694.

- run.description: Selectivity index, ratio of LD50 for human hTERT-BJ cells to LD50 for human MDA-MB-231 cells
- Format: toxicity
- recorded.conditions: hTERT-BJ cells versus MDA-MB-231 cells, read-out: Selectivity Index
reported.endpoint: selectivity ratio

c1cc2cc(c1)-c1cccc(c1)CNCCN1CCNCc3cccc(c3)-c3cccc(c3)CNCCN(CCNC2)CCNCc2cccc(c2)-c2cccc(c2)CNCC1 2

###

- run.description: Binding affinity to FAM-TWJ-S1 DNA (unknown origin) assessed as normalized FAM intensity at 1 uM measured at 5 mins interval for 1 hr by fluorescence assay relative to control
Listing: Ratio of selected molecules
reported.endpoint: Ratio (%)

COCCOCCOCC[n+]1ccc(-c2c3nc(c(-c4cc[n+](CCOCCOCCOC)cc4)c4ccc([nH]4)c(-c4cc[n+](CCOCCOCCOC)cc4)c4nc(c(-c5cc[n+](CCOCCOCCOC)cc5)c5ccc2[nH]5)C=C4)C=C3)cc1 27
c1cc2ccc3cc2cc1CNCCNCCNCc1ccc2ccc(cc2c1)CNCCNCCNC3 37
c1cc2ccc3ccc(-[n+]4csc5ccccc54)c4ccc(c1)c2c34 100
CN(C)CCCNCC12c3ccccc3C(CNCCCN(C)C)(c3ccccc31)c1ccccc12 100
c1cc2c3nc4c(cccc4cc3c1)CNCCOCCNCc1cccc3cc4cccc(c4nc13)CNCCOCCNC2 80
c1cc2c3cccc(c3c1)CNCCOCCNCc1cccc3c(cccc13)CNCCOCCNC2 118
c1cc2cc(c1)-c1cccc(c1)CNCCN1CCNCc3cccc(c3)-c3cccc(c3)CNCCN(CCNC2)CCNCc2cccc(c2)-c2cccc(c2)CNCC1 109
NCCCNC[C@]12c3ccccc3[C@](CNCCCN)(c3ccccc31)c1cc3ccccc3cc12 40
Cn1c[n+](-c2ccc3ccc4cccc5ccc2c3c45)cn1 101
C[n+]1ccc(-c2c3nc(c(-c4cc[n+](C)cc4)c4ccc([nH]4)c(-c4cc[n+](C)cc4)c4ccc([nH]4)c(-c4cc[n+](C)cc4)c4nc2C=C4)C=C3)cc1 8
c1cc2nc3ccc4cc3cc2cc1CNCCOCCNCc1ccc2nc3ccc(cc3cc2c1)CNCCOCCNC4 27
